Test system: UACC-257 melanoma
assay name: NCI-60 one-dose screen, 48 h
reported conditions: 10 µM unless noted
This is part of a sample that, as a whole, favours compounds with a hit. Of some 83,000 tested, about 20% had one in any assay. Activity calls are given as the source filed them. Rule for the calls: active = growth percent below 10; inactive = the rest.
Respond using exactly one of the listed classes: 1 = active, -1 = inactive

Known results for molecules:
• Cc1[nH]n(C(=O)c2ccncc2)c(=O)c1N=Nc1ccc(F)c(Cl)c1 = -1
• CC(C)(C)OC(=O)N1C/C(=C\c2ccoc2)C(=O)/C(=C/c2ccoc2)C1 = -1
• COc1ccccc1N1CCN(C(=O)c2ccc3nc(NC(=O)c4ccc(NCCc5ccccc5)c([N+](=O)[O-])c4)sc3c2)CC1 = -1
• COc1ccc(Cn2nc(-c3cc(OC)c(OC)c(OC)c3)c3c2CCc2cnoc2-3)cc1OC = -1
• COc1c(Cl)cc(Cl)c2ccc(C=C3C(=O)N(C)C(=O)N(C)C3=O)nc12 = -1

Query: Outcome logged for COc1ccccc1OCC(=O)N1CCCCCC1 in this assay:
Reply: -1

Query: Now consider COc1cc(CNC(=O)CCCCC[P+](c2ccccc2)(c2ccccc2)c2ccccc2)c(OC)c2c1OCO2 and answer again.
Reply: -1

Query: Now consider CCOC(=O)c1ccc(Nc2ccnc(SCC(=O)c3ccc(C#N)cc3)n2)cc1 and answer again.
Reply: -1

Query: Now consider Cc1ccc(S(=O)(=O)Nc2ccc(Cl)cc2)cc1 and answer again.
Reply: -1

Query: Now consider CN(C)CCCn1c2c(c3ccc(-c4ccn[nH]4)cc3c1=O)C(=O)c1ccccc1-2 and answer again.
Reply: -1

Query: Now consider CN(C)Cc1c(-c2ccccc2)[nH]c2ccccc12 and answer again.
Reply: -1

Query: Now consider COc1ccc2c(Nc3ccc(NS(C)(=O)=O)cc3)c3ccccc3nc2c1 and answer again.
Reply: 1

Query: Now consider Cc1ccc(/C=C/C(=O)c2ccc(N)cc2)c(C)c1 and answer again.
Reply: -1

Query: Now consider COc1ccc(-c2nc(N/N=C/c3c[nH]c4ccccc34)nc(N3CCOCC3)c2C#N)cc1 and answer again.
Reply: -1

Query: Now consider N#Cc1cc(-c2nc3ccccc3s2)c(=O)n(NS(=O)(=O)c2ccc(Cl)cc2)c1N and answer again.
Reply: -1

Query: Now consider COc1ccc2c(c1)c(CC(=O)NCCOCCOCC(=O)Nc1ccc(OC)c(C(N)=O)c1O)c(C)n2C(=O)c1ccc(Cl)cc1 and answer again.
Reply: -1

Query: Now consider CCN(CC)CCCC(Nc1c2ccc(Cl)cc2nc2ccc(OC)cc12)c1ccc(Cl)cc1 (configuration not stated) and answer again.
Reply: 1

----------
System: OVCAR-4 ovarian
assay name: NCI-60 one-dose screen, 48 h
reported conditions: 10 µM unless noted
About 83,000 compounds went through this panel and 20% of them were active in at least one assay; those are over-represented in the sample as a whole. Calls of active or inactive are those of the source. The calls were made as follows: active = growth percent below 10; inactive = the rest.
Respond using exactly one of the listed classes: active, inactive

* CC(=O)c1c(C)[nH]c(-c2nc3ccc(N4CCN(C)CC4)cc3[nH]2)c1-c1ccccc1 | inactive
* O=S(=O)(NCCCNc1nccc(-c2c(-c3cccc(O)c3)nc3occn23)n1)c1ccc(F)cc1 | inactive
* Clc1ccc(N2N=C(c3cccc(Nc4ccncc4)c3)CC2c2ccccc2)cc1 (centres undefined) | inactive

Switching to the query record.
Query: Outcome logged for COc1ccccc1N1CCN(C(=O)c2ccc3nc(NC(=O)c4ccc(NCCc5ccccc5)c([N+](=O)[O-])c4)sc3c2)CC1 in this assay:
Reply: active
